Listed here: items and their measured Semi-quantitative analysis of proteins binding to different plaque particles: Chl Large.
tested on: High Density cholesterol (Chl Large) plaque particles; assay: Mass spectroscopy proteomics, semi-quantitative binding affinity of serum proteins (plaqueproteome, Table 2); design: species or system human; conditions: higher number = stronger affinity
reported-endpoint: Semi-quantitative analysis of proteins binding to different plaque particles: Chl Large

- molecule: "Platelet basic protein (protein) SSTKGQTKRNLAKGKEESLDSDLYAELRCMCIKTTSGIHPKNIQSLEVIGKGTHCNQVEVIATLKDGRKICLDPDAPRIKKIVQKKLAGDESAD"
  obs-value: 0
- molecule: "Zinc-alpha-2-glycoprotein (protein) QENQDGRYSLTYIYTGLSKHVEDVPAFQALGSLNDLQFFRYNSKDRKSQPMGLWRQVEGMEDWKQDSQLQKAREDIFMETLKDIVEYYNDSNGSHVLQGRFGCEIENNRSSGAFWKYYYDGKDYIEFNKEIPAWVPFDPAAQITKQKWEAEPVYVQRAKAYLEEECPATLRKYLKYSKNILDRQDPPSVVVTSHQAPGEKKKLKCLAYDFYPGKIDVHWTRAGEVQEPELRGDVLHNGNGTYQSWVVVAVPPQDTAPYSCHVQHSSLAQPLVVPWEAS"
  obs-value: 4
- molecule: "Selenoprotein P (protein) ESQDQSSLCKQPPAWSIRDQDPMLNSNGSVTVVALLQASUYLCILQASKLEDLRVKLKKEGYSNISYIVVNHQGISSRLKYTHLKNKVSEHIPVYQQEENQTDVWTLLNGSKDDFLIYDRCGRLVYHLGLPFSFLTFPYVEEAIKIAYCEKKCGNCSLTTLKDEDFCKRVSLATVDKTVETPSPHYHHEHHHNHGHQHLGSSELSENQQPGAPNAPTHPAPPGLHHHHKHKGQHRQGHPENRDMPASEDLQDLQKKLCRKRCINQLLCKLPTDSELAPRSUCCHCRHLIFEKTGSAITUQCKENLPSLCSUQGLRAEENITESCQURLPPAAUQISQQLIPTEASASURUKNQAKKUEUPSN"
  obs-value: 0
